# Test Protocol: folding enthalpy; higher = less favourable; fluorescence melt of hairpins on a sequencing array, two-state fit
# Condition Description: sodium 0.088 M
Entries annotated with measured folding enthalpy
Report the figure in kcal/mol without appending any unit label.

Problem: Look up and report measured folding enthalpy for this entry: CAATCGAAAGATTG (((((....)))))
Result: -22.6

Problem: Look up and report measured folding enthalpy for this entry: GACGTCGGAAACGATGTC (((.(((....))).)))
Result: -52.2

Problem: Look up and report measured folding enthalpy for this entry: GATCATGCTATGATC ((((((...))))))
Result: -27.9

====

# Test Protocol: melting temperature; fluorescence melt of hairpins on a sequencing array, two-state fit, raised by 9.35 °C to match UV melts
# Condition Description: sodium 0.088 M
Quantity Measured: Tm

{"columns": ["Seq Text", "Tm"],
 "data": [
  ["GTGTTGGGAAACTAACAC (((((.(....).)))))", "46.7 °C"],
  ["GACGTTGAAAAACGTC ((((((....))))))", "60.1 °C"],
  ["GATCGTGGAGACGATC ((((((....))))))", "57.8 °C"],
  ["GGGATTGGAAACGATCTC (.(((.(....).))).)", "31.4 °C"],
  ["GGGCGGGGAAACCCACCC (((.(((....))).)))", "54.6 °C"]
]}

Problem: Look up and report measured Tm for this entry: GATCATCAAGATGATC ((((((....))))))
Result: 49.8 °C

Problem: Look up and report measured Tm for this entry: GAGGGACGAAAGTCACTC (((.(((....))).)))
Result: 65.6 °C

Problem: Look up and report measured Tm for this entry: GAGAGGCGAAAGCCCTC (((.(((....))))))
Result: 55.7 °C

====

# Test Protocol: folding enthalpy; higher = less favourable; fluorescence melt of hairpins on a sequencing array, two-state fit
# Condition Description: sodium 0.088 M
Entries annotated with measured folding enthalpy
Report the figure in kcal/mol without appending any unit label.

{"columns": ["Seq Text", "Unit Tag", "folding enthalpy"],
 "data": [
  ["GCGTGGCGAAAGCGAAGC ((.(.((....)).).))", "kcal/mol", -16.9],
  ["GATCCCGAAAGGGCGATC ((((((....)))..)))", "kcal/mol", -12.2],
  ["GTGCTTCGAAAGAAACAC (((.(((....))).)))", "kcal/mol", -36],
  ["GGTGCAGGAAACTGCATC (.(((((....))))).)", "kcal/mol", -22.4],
  ["GGACGGGGAAACCCGTTC (.(((((....))))).)", "kcal/mol", -21.4]
]}

Problem: Look up and report measured folding enthalpy for this entry: GTGCATCGAAAGATCCAC (((.(((....))).)))
Result: -28.2

Problem: Look up and report measured folding enthalpy for this entry: GTACACGAAAGTGTATAC ((((((....)))..)))
Result: -12.1

Problem: Look up and report measured folding enthalpy for this entry: GCACAAACGAAAGTTTGC (((..(((....))))))
Result: -11.2

Problem: Look up and report measured folding enthalpy for this entry: GTATGAGGAAACTCACAC ((.((((....)))).))
Result: -14.5
